Numbers sourced from patent US20230357134A1.

molecular target: isolated wild type TTR (Homo sapiens); construct: the non-covalently associated protomers, of mass 13,761, each contain 127 residues; His6 (N); TEV cleavage site (N); test: Displacement of 125I-T4 from isolated wild type TTR in buffer; settings: concentration of ligand reducing binding of 125I-T4 by TTR by 50%; 125 nM TTR, pH 8.0, overnight 4° C.; mean of at least 3 replicates; read-out: D50 buffer
Quantity Kind: IC50 (nM)
Provide only the numeric value, understood in nM.

Quote IC50 reported for `O=C(O)CCc1cc(Cl)c(OCCCOCCOc2c(Cl)cc(-c3nc4ccc(C(=O)O)cc4o3)cc2Cl)c(Cl)c1` please.
80

Quote IC50 reported for `O=C(O)CCc1cc(Cl)c(OCC[C@@H](O)[C@H](O)CCOc2ccc(-c3nc4ccc(C(=O)O)cc4o3)cc2Cl)c(Cl)c1` please.
100

Quote IC50 reported for `O=C(O)CCc1cc(Cl)c(OCC[C@@H](O)[C@H](O)CCOc2ccc(Nc3ccccc3C(=O)O)cc2Cl)c(Cl)c1` please.
70

Quote IC50 reported for `O=C(O)CCc1cc(Cl)c(OCCCOCCOc2c(Cl)cc(Nc3ccnnc3C(=O)O)cc2Cl)c(Cl)c1` please.
70

Quote IC50 reported for `O=C(O)CCc1cc(Cl)c(OCC[C@@H](O)[C@H](O)CCOc2c(Cl)cc(Nc3ncccc3C(=O)O)cc2Cl)c(Cl)c1` please.
70

Quote IC50 reported for `O=C(O)CCc1cc(Cl)c(OCCOCCCOc2c(Cl)cc(-c3nc4ccc(C(=O)O)cc4o3)cc2Cl)c(Cl)c1` please.
80
